Test system: OVCAR-5 ovarian
Experiment: NCI-60 one-dose screen, 48 h (100 = growth as untreated, 0 = no growth, -100 = all killed)
Conditions: 10 µM unless noted
Compounds without any hit were thinned out: in the full panel of roughly 83,000, 20% have a hit.
Below, each entry is listed alongside its reported growth.
// return numeric value only (unit: %, not printed)

Take a look at these entries with their results.
[
  {
    "molecule": "COc1cc(/C=N/O)nc(-c2ccccn2)c1",
    "growth, %": 45.3
  },
  {
    "molecule": "O=[N+]([O-])CC(c1ccccc1F)c1c[nH]c2ccccc12 (stereo not given)",
    "growth, %": 96
  },
  {
    "molecule": "Cn1ccc2c1CC1CN(Cc3ccco3)C(=O)C1C2C(=O)O (stereo not given)",
    "growth, %": 95
  },
  {
    "molecule": "CCOC(=O)/C(C#N)=C1/NNC(=Nc2cccnc2)S1",
    "growth, %": 102
  },
  {
    "molecule": "O=C(/C=C(/C=C/c1coc2ccccc12)OB(F)F)/C=C/c1coc2ccccc12",
    "growth, %": 113
  },
  {
    "molecule": "CCOC(=O)c1ccc2c(c1)ncn2-c1ccc(NC(=O)Nc2cccc(C)c2)cc1",
    "growth, %": 85.5
  },
  {
    "molecule": "CN(C)CC(O)c1ccc(/C=C/c2ccc(Cl)cc2)cc1 (stereo not given)",
    "growth, %": 2.11
  },
  {
    "molecule": "CCCOC(=O)N[C@H]1CCc2cc(OC)c(OC)c(OC)c2-c2ccc(SC)c(=O)cc21",
    "growth, %": 33.9
  },
  {
    "molecule": "O=C(Nc1cccc(C2=NCCN2)c1)c1ccc(-c2ccc(C(=O)Nc3cccc(C4=NCCN4)c3)cc2)cc1",
    "growth, %": 88.5
  }
]

Now take the following molecule into account.
Item COC(=O)C1=C(C(=O)ON)C2C=CC1(C(Cc1ccccc1)Nc1ccccc1)O2 (stereo not given) was tested on OVCAR-5 ovarian; the reported growth is 105

====

Test system: K-562 leukemia
Test: NCI-60 one-dose screen, 48 h
Details: 10 µM unless noted
The panel holds about 83,000 compounds, 20% with a hit somewhere; the sample as a whole holds those more often. Calls of active or inactive are those of the source. How the source made its calls: active means growth percent below 10; inactive means the rest.
Log the outcome using a class from active, inactive

Ask: Answer briefly: the call reported for O=C(Nc1ccc(NC(=O)c2cc(=O)[nH]c3ccccc23)cc1)Nc1cccc(Cl)c1 in this assay.
Result: inactive

Ask: Answer briefly: the call reported for O=[N+]([O-])c1cc(Br)c2cccc3c2c1CC3 in this assay.
Result: inactive

Ask: Answer briefly: the call reported for N#CC1C(C#N)C(C(=O)c2ccc(Br)cc2)N2c3ccccc3C=CC12 (stereo not given) in this assay.
Result: inactive

Ask: Answer briefly: the call reported for CCN(CC)c1ccc(/C=N/NC(=O)CSc2nc3ccccc3c(=O)n2CCc2ccc(S(N)(=O)=O)cc2)c(O)c1 in this assay.
Result: active

Ask: Answer briefly: the call reported for CCCCCOc1ccc(/C=N/Nc2cc(C)nc3ccc(Cl)cc23)cc1 in this assay.
Result: active

Ask: Answer briefly: the call reported for COc1ccc(C(=O)c2cc(OC)c(OC)c(OC)c2)cc1O in this assay.
Result: active

Ask: Answer briefly: the call reported for COc1ccc(/C=C2\Oc3cc(OCCCCCN4CCCCC4)ccc3C2=O)cc1OC in this assay.
Result: active

Ask: Answer briefly: the call reported for CC(Sc1nc2ccccc2c(=O)n1CCc1ccc(S(N)(=O)=O)cc1)C(=O)Nc1ccc(Cl)cc1 (stereo not given) in this assay.
Result: inactive

Ask: Answer briefly: the call reported for N#C/C(=C\c1ccc(Cl)cc1)n1nnc2cc(F)c(F)cc21 in this assay.
Result: inactive

====

Below, each entry is listed alongside its reported growth.
Tested on: BT-549 breast
Assay: NCI-60 one-dose screen, 48 h (100 = growth as untreated, 0 = no growth, -100 = all killed)
Conditions: 10 µM unless noted
Experimental: Growth inhibition of the BT-549 human tumor cell line is measured as a screen for anti-cancer activity. Cells are grown in 96 well plates and exposed to the test compound for 48 hours. Compounds are tested at a single concentration, which is 10^-5 M for most compounds. The reported endpoint is percent growth (GI% or GIPRCNT), where numbers from 0 - 100% represent growth inhibition, and numbers from -100% - 0 represent cell death. For example, a value of 40 represents 60% growth inhibition. […]
This is part of a sample that, as a whole, favours compounds with a hit. Of some 83,000 tested, about 20% had one in any assay.
// return numeric value only (unit: %, not printed)

Take a look at these entries with their results.
[
  {
    "molecule": "CCN(CC)CC[n+]1cc2cc(OC)c(OC)cc2c2ccc3cc4c(cc3c21)OCO4",
    "value reported": -4.72
  },
  {
    "molecule": "O=C(O)c1ccc2c(c1)C(=O)N(Cc1ccccc1)C2=O",
    "value reported": 98.6
  },
  {
    "molecule": "CCCCN1C=CCN(CCCC)C1",
    "value reported": 56.9
  }
]

According to the records, this molecule CCN(CC)c1ccc(C(=O)c2ccccc2)cc1 displays growth of 109

According to the records, this molecule CC(=O)O[C@@H]1C2CCC3C(CC[C@@]4(C)C3CC[C@@H]4C(C)N(C)C)[C@@]2(C)CC[C@@H]1NC(=O)C=C(C)C (some centres undefined) displays growth of 26.4

According to the records, this molecule COc1cc(/C=C\c2cc(OC)c(OC)c(OC)c2)cc(N)c1OC displays growth of 75.9

According to the records, this molecule C[C@H]1[C@H]2[C@H]3CC[C@@H]4[C@@]5(C)CC[C@H](O)C(C)(C)[C@@H]5CC[C@@]4(C)[C@]3(C)CC[C@]23CO[C@]1(C)[C@@H](C(=O)/C=C\c1ccco1)C3 displays growth of 105

According to the records, this molecule COC(=O)c1ccc2c(c1)[n+](=O)c(C(C)=O)c(C(F)(F)F)n2[O-] displays growth of -19.6

According to the records, this molecule COc1ccc(-c2[nH][nH]c(=O)c2-c2nc3ccccc3s2)cc1 displays growth of 97.6

According to the records, this molecule O=S(=O)(NCCCNc1nccc(-c2c(-c3cccc(F)c3)nc3sccn23)n1)c1cccc2ccccc12 displays growth of 65

According to the records, this molecule C=C(C)[C@@H]1CC[C@]2(C(=O)N3CCN(C)CC3)CC[C@]3(C)[C@H](CC[C@@H]4[C@@]5(C)C/C(=C/c6ccncc6)C(=O)C(C)(C)[C@@H]5CC[C@]43C)[C@@H]12 displays growth of 66.3

According to the records, this molecule c1ccc(Cn2cnc3ccc(-c4nc(-c5ccc6c(c5)ncn6C5CCCCC5)cn5ccnc45)cc32)cc1 displays growth of -44.7

According to the records, this molecule O=C(Nc1ccccc1)Nc1ccc2cc3ccc(NC(=O)Nc4ccccc4)cc3nc2c1 displays growth of 86.2

According to the records, this molecule O=C(CCN1CCCC1)Nc1ccc2c(NCc3ccccc3)c3ccccc3nc2c1 displays growth of 16.8

According to the records, this molecule COc1cc2nc(-c3ccc(C(F)(F)F)cc3)cc(OCCCN3CCCC3)c2cc1OC displays growth of 28.8

According to the records, this molecule N/C(=N\C(N)=N\c1nc2ccccc2s1)c1cnccn1 displays growth of 38.3

According to the records, this molecule NS(=O)(=O)c1ccc(CCN2C(=O)c3cc(Cl)c(Cl)cc3C2=O)cc1 displays growth of 109

According to the records, this molecule CC(Oc1ccc(C(=O)O)cc1C(F)(F)F)c1ccc(Oc2ccccc2)cn1 (centres undefined) displays growth of 89.1

According to the records, this molecule CCCCCCCCCCCCCCCC[N+]1(C)CCN(SN2CC[N+](C)(CCCCCCCCCCCCCCCC)CC2)CC1 displays growth of 87.7

====

System: CAKI-1 renal
Assay: NCI-60 one-dose screen, 48 h (100 = growth as untreated, 0 = no growth, -100 = all killed)
Details: 10 µM unless noted
The panel holds about 83,000 compounds, 20% with a hit somewhere; the sample as a whole holds those more often.
Mark met for growth under 40%, not met if at or over.

Ask: Consider the compound Cn1nc(CC#N)c2c(=N)n(N)cnc21 . Is its growth strictly less than 40%?
Result: not met

====

System: 786-0 renal
Experiment: NCI-60 one-dose screen, 48 h (100 = growth as untreated, 0 = no growth, -100 = all killed)
Conditions: 10 µM unless noted
This is part of a sample that, as a whole, favours compounds with a hit. Of some 83,000 tested, about 20% had one in any assay. Active and inactive are the calls of the source. Rule for the calls: active = growth percent below 10; inactive = the rest.
Below, each entry is listed alongside its reported growth.

Take a look at these entries with their results.
[
  {
    "molecule": "N#Cc1c(-c2cccc([N+](=O)[O-])c2)nc(SCC(=O)c2ccc(Cl)cc2)[nH]c1=O",
    "growth": "96.7% (inactive)"
  },
  {
    "molecule": "COc1cccc(C(=O)NNc2nc(Cl)nc(N3CCN(C(c4ccccc4)c4ccccc4)CC3)n2)c1",
    "growth": "82% (inactive)"
  },
  {
    "molecule": "COc1cc(C2C3CC4CCCC[C@H]4N3[C@@]3(C(=O)Nc4cc(Cl)ccc43)C2C(=O)c2nc3ccccc3[nH]2)cc(OC)c1OC (stereo partly specified)",
    "growth": "67% (inactive)"
  }
]

According to the records, this molecule O=C1Nc2cc(Cl)ccc2/C1=C\c1c(-c2ccc(F)cc2)nc2ccccn12 displays growth of 7.55% (active)

According to the records, this molecule CCN(c1ccccc1)S(=O)(=O)c1cc([N+](=O)[O-])ccc1Cl displays growth of 97.4% (inactive)

According to the records, this molecule COc1ccc2[nH]c(O)c(/C=c3/cc4c(c(-c5ccc(F)cc5)n3)=Nc3ccccc3-4)c2c1 displays growth of 97.6% (inactive)
